Assignment: determine reported TGI for the given molecules.
tested on: EKVX NSCLC; assay: NCI tumour cell line growth inhibition, 48 h

See these solved cases before continuing.
O=[N+]([O-])c1cccc(-c2ncnc(-c3cccc([N+](=O)[O-])c3)n2)c1    > 100 µM
CSc1nc(SC)c2cnn(CC3CO3)c2n1 (centres undefined)    > 75.4 µM
CCNC(=S)NNC(=O)c1csc(NC(=S)NC2CCCCC2)n1    > 100 µM

Turning now to a further molecule:
q: Bench note: what TGI did COc1ccc(NC(=S)N/N=C/c2c(C)n(C)n(-c3ccccc3)c2=O)cc1 show?
a: > 100 µM

====

tested on: SNB-19 CNS; test: NCI tumour cell line growth inhibition, 48 h
Assignment: determine reported TGI for the given molecules.

See these solved cases before continuing.
COc1ccc(-c2c(C#N)c(N)nc3c2COc2ccc(F)cc2-3)cc1OC    23.7 µM
COc1ccc2[nH]c(C(O)(Cc3cccnc3)Cc3cccnc3)cc2c1    > 100 µM
COC1/C=C/C(C)C(OC)CC(O)/C=C/C(C)C(C(C)C(OC)C(C)CCC(=O)C(C)C(C/C=C/N(C)C=O)OC)OC(=O)/C=C/C=C(\C)CC(OC)CC2=CC(=O)O[C@@H](C(C)C(OC)C1)[C@H]2O (some centres undefined)    0.239 µM

Turning now to a further molecule:
q: Bench note: what TGI did Cc1cccc(NC2=C(Cl)C(=O)N(Cc3ccc(Cl)cc3)C2=O)c1 show?
a: 25.8 µM

====

tested on: A498 renal; experiment: NCI tumour cell line growth inhibition, 48 h
Assignment: determine reported TGI for the given compounds.

For each listed entry, give its TGI.
1. CCOC(=O)/C=C(/OCC)[C@@H]1C(C(=O)c2ccc(Cl)cc2)[C@H]1/C(=C\C(=O)OCC)OCC (stereo not given in full)
2. CC1=Nn2c(nnc2-c2ccc(Cl)cc2)NC(C)(C)C1
3. COC(=O)C(CCC1CC(OC)N(C(=O)OCc2ccccc2)C1)N=Cc1ccccc1 (stereo not given)
4. Cc1oc2c(c1C)S(=O)(=O)C(C#N)=CN2
5. C=C(C)C(CC=C(C)C)Cc1c(O)cc(OC)c2c1OC(c1ccc(O)cc1O)C(O)C2=O (stereo not given)

a:
["> 100 µM", "> 100 µM", "> 100 µM", "> 100 µM", "30.7 µM"]

====

system: SF-268 CNS; assay: NCI tumour cell line growth inhibition, 48 h
RESULT_TYPE: TGI

For each listed entry, give its TGI.
1. C=C=C(C)C(=O)N(C(C)C)C(C)C
2. O=[N+]([O-])c1nccn1COCCI
3. C/C(CC(=O)Nc1ccc(C)c(C)c1)=N\NC(N)=S

a:
["> 100 µM", "> 100 µM", "> 100 µM"]

For each listed entry, give its TGI.
1. CN(C)CCNC(=O)c1cnn(C)c1[N+](=O)[O-]
2. COC(=O)c1c2c(c3[nH]c4ccccc4c3c1C(=O)OC)C(=O)C1=C(C2=O)C2(Cl)C(Cl)C(Cl)C1(Cl)C2(Cl)Cl (stereo not given)

a:
> 100 µM
6.84 µM

====

test system: SN12C renal; test: NCI tumour cell line growth inhibition, 48 h
Assignment: determine reported TGI for the given compounds.
Numbers only, in µM.

See these solved cases before continuing.
COc1cc(NC(=O)c2ccc(C(F)(F)F)nc2Nc2cc(Cl)ccc2C)cc(OC)c1OC    24.2
COc1ccccc1-c1cc(=O)c2ccccc2n1C1CC1    19.5

Turning now to a further compound:
q: Bench note: what TGI did COc1cnc2c(c1)C(=O)c1c-2n(CCCBr)c(=O)c2cc([N+](=O)[O-])ccc12 show?
a: 3.48

The measurements presented in this section are drawn from PubChem BioAssay (NCI).
